Value source: patent US4973578A

Molecular target: TSH receptor on human thyroid membranes (Homo sapiens, UniProt P16473)
Sequence (P16473 21-764): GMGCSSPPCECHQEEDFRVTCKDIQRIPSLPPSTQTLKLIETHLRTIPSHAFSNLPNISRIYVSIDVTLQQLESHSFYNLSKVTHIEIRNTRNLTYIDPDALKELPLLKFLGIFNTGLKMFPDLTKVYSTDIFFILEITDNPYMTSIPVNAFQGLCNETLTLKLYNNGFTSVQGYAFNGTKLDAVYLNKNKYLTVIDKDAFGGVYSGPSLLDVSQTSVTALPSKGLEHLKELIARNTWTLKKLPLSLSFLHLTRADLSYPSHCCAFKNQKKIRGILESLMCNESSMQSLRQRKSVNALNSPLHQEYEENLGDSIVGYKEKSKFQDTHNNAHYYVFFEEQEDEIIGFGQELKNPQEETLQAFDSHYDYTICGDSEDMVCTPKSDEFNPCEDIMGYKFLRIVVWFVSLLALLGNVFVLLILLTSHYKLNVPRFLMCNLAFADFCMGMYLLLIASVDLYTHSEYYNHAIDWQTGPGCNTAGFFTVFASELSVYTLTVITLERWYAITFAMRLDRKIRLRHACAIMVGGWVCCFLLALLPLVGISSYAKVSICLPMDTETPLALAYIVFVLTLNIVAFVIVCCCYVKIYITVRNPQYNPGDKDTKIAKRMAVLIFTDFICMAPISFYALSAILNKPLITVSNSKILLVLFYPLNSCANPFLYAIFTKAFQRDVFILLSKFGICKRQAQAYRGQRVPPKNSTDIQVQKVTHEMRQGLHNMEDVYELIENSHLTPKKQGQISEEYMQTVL
Residues, ends and D or L forms follow the SMILES beside them.
ENDPOINT: IC50

Worked cases, IC50 given:
COMPOUND	IC50
CC[C@H](C)[C@H](NC(=O)[C@@H]1CCCN1C(=O)[C@H](C)NC(=O)CNC(=O)[C@@H]1CCCN1)C(=O)N[C@@H](CC(C)C)C(=O)N[C@@H](CCC(N)=O)C(=O)N[C@@H](CS)C(=O)N[C@@H](CCSC)C(=O)NCC(=O)N[C@@H](CS)C(=O)N[C@@H](CS)C(=O)N[C@@H](Cc1ccccc1)C(=O)N[C@@H](CO)C(=O)N[C@@H](CCCNC(=N)N)C(N)=O [α21-35] (H-PGAPILQCMGCCFSR-NH2)	39.9 µM
CSCC[C@H](NC(=O)[C@@H](NC(=O)[C@@H](NC(=O)[C@@H](NC(=O)[C@H](CCCNC(=N)N)NC(=O)[C@H](CC(N)=O)NC(=O)[C@H](Cc1ccc(O)cc1)NC(=O)[C@H](CO)NC(=O)[C@H](CCCCN)NC(=O)[C@H](C)NC(=O)[C@@H](N)C(C)C)C(C)C)[C@@H](C)O)C(C)C)C(=O)NCC(=O)NCC(=O)N[C@@H](Cc1ccccc1)C(=O)N[C@@H](CCCCN)C(N)=O [α61-75] (H-VAKSYNRVTVMGGFK-NH2)	> 700 µM
CSCC[C@H](N)C(=O)NCC(=O)NCC(=O)N[C@@H](Cc1ccccc1)C(=O)N[C@@H](CCCCN)C(=O)N[C@H](C(=O)N[C@@H](CCC(=O)O)C(=O)N[C@@H](CC(N)=O)C(=O)N[C@@H](Cc1c[nH]cn1)C(=O)N[C@H](C(=O)N[C@@H](C)C(=O)N[C@@H](CS)C(=O)N[C@@H](Cc1c[nH]cn1)C(=O)N[C@@H](CS)C(=O)N[C@@H](CO)C(N)=O)[C@@H](C)O)C(C)C [α71-85] (H-MGGFKVENHTACHCS-NH2)	> 700 µM

Task: Sample CC(C)C[C@H](NC(=O)[C@@H](NC(=O)[C@H](CS)NC(=O)[C@H](CCC(=O)O)NC(=O)[C@@H]1CCCN1C(=O)[C@H](CS)NC(=O)[C@H](CC(=O)O)NC(=O)[C@H](CCC(N)=O)NC(=O)[C@@H](NC(=O)[C@H](CC(=O)O)NC(=O)[C@@H]1CCCN1C(=O)[C@H](C)N)C(C)C)[C@@H](C)O)C(=O)N[C@@H](CCC(N)=O)C(=O)N[C@@H](CCC(=O)O)C(=O)N[C@@H](CC(N)=O)C(N)=O [α1-15] (H-APDVQDCPECTLQEN-NH2) — what was its IC50?
Output: > 700 µM

###

Molecular target: TSH receptor on human thyroid membranes (Homo sapiens, UniProt P16473)
Construct: Thyroid tissue obtained at surgery from patients with Graves' disease was prepared as described by Takahashi et al; from tissue; host or cells: human thyroid tissue from Graves' disease patients, 2000xg membrane fraction
Test: TSH radioreceptor assay: inhibition of 125I-bTSH binding to human thyroid membrane preparations
Details: human thyroid membrane homogenates; ± S.E.; read-out: bTSH ED50 (effective dose necessary to inhibit binding of 125I-bTSH by 50%)
Protocol: Thyroid tissue obtained at surgery from patients with Graves' disease was prepared as described by Takahashi et al., J. Clin. Endocrinol. Metab. 47:870 (1978), the disclosure of which is incorporated herein. […] FIG. 1 reports 5×10^-12 M labeled bTSH incubated with 10 mg equivalents (wet weight) of 2000×g fraction of thyroid membranes with varying concentrations of unlabeled TSH or synthetic α-subunit peptides. Nonspecific binding was determined in the presence of excess unlabeled TSH.
Residues, ends and D or L forms follow the SMILES beside them.
ENDPOINT: pIC50
Answers are plain numbers, as −log10 of the molar value.

Here is how some compounds turned out for pIC50.
COMPOUND	pIC50
C[C@H](N)C(=O)N[C@@H](CS)C(=O)N[C@@H](Cc1c[nH]cn1)C(=O)N[C@@H](CS)C(=O)N[C@@H](CO)C(=O)N[C@H](C(=O)N[C@@H](CS)C(=O)N[C@@H](Cc1ccc(O)cc1)C(=O)N[C@@H](Cc1ccc(O)cc1)C(=O)N[C@@H](Cc1c[nH]cn1)C(=O)N[C@@H](CCCCN)C(=O)N[C@@H](CO)C(=O)O)[C@@H](C)O [α81-92] (H-ACHCSTCYYHKS-OH)	3.76
CC(C)C[C@H](NC(=O)[C@@H]1CCCN1C(=O)[C@@H](NC(=O)[C@@H]1CCCN1C(=O)[C@H](Cc1ccc(O)cc1)NC(=O)[C@H](C)NC(=O)[C@H](CCCNC(=N)N)NC(=O)[C@H](CO)NC(=O)[C@H](Cc1ccccc1)NC(=O)[C@H](CS)NC(=O)[C@@H](N)CS)[C@@H](C)O)C(=O)N[C@@H](CCCNC(=N)N)C(=O)N[C@@H](CO)C(=O)N[C@@H](CCCCN)C(=O)N[C@@H](CCCCN)C(N)=O [α31-45] (H-CCFSRAYPTPLRSKK-NH2)	4.51

Consider now this further compound.
Task: Please give the measured pIC50 for this compound: CSCC[C@H](NC(=O)[C@@H](NC(=O)[C@H](CCCCN)NC(=O)[C@H](CCCCN)NC(=O)[C@H](CO)NC(=O)[C@H](CCCNC(=N)N)NC(=O)[C@@H](N)CC(C)C)[C@@H](C)O)C(=O)N[C@@H](CC(C)C)C(=O)N[C@H](C(=O)N[C@@H](CCC(N)=O)C(=O)N[C@@H](CCCCN)C(=O)N[C@@H](CC(N)=O)C(=O)N[C@H](C(=O)N[C@H](C(=O)N[C@@H](CO)C(N)=O)[C@@H](C)O)C(C)C)C(C)C [α41-55] (H-LRSKKTMLVQKNVTS-NH2)
Output: 3.77
